The measured values listed here are drawn from patent US20080132510A1.

biological target: benzodiazepine site of the GABAA receptor; assay: Ligand binding assay (3H-Ro15-1788 displacement, purified rat cortical membranes); conditions: previously determined; used in the Cheng-Prusoff equation; read-out: binding dissociation constant (Kd) of the radioligand
value type: Kd
Please state the number and follow it with the unit.

Measured Kd of CCOC(=O)c1ncn2c1CN(C)C(=O)c1cc(F)ccc1-2 : 1 nM
